- System: 786-0
- PROTOCOL TEXT: NCI tumour cell line growth inhibition, 48 h
The source made the active and inactive calls. Cut-off read from the data, not from the text of the source: active = GI50 up to about 1.1 µM and inactive = higher.
OBSERVATION TYPE: GI50

Recorded results for 3 compounds are shown here.
CN(C)CCCn1c(Cc2ccc(Cl)cc2)nc2cc(C(F)(F)F)ccc21: 13.9 µM (inactive)
O=c1[nH]nc(Cc2ccccc2)n1/N=C/c1ccncc1: > 100 µM (inactive)
CCCCCC#COC1CC(C)CC[C@@H]1C(C)C (some centres undefined): > 100 µM (inactive)

Next compound, GI50 to be filled in.
Short answer please: GI50, 786-0, entry Clc1nc2n(c1/C=C/c1cccs1)CCS2
20 µM (inactive)
